- System: Fer (mouse);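 also: frequency after pTyr selection over input frequency; kinase dosed for 20-30% of maximal phosphorylation in three min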
- method: phosphorylation enrichment, bacterial display (enrichment ratio); higher = better substrate or ligand; peptides without Tyr show the background
Use YES when the recorded phosphorylation enrichment is no lower than 0.5; use NO when it is lower.

Worked set:
> print(dat)
                      sequencestring  classification
1            QWLEQYTQAIE [LSP1_Y234]              NO
2  AAVDNYCRHNY [HLA-DRB1_Y107_T106N]              NO
3         RDHFGYRQSVT [CD55_Y245_YF]              NO
4            HFGCVYHGTLL [MET_Y1093]             YES
5     DYSLKYPTDIP [APC_Y1183_A1184P]              NO

stdin: Would you say ADYYDYGHGLS [KHDRBS3_Y304] shows phosphorylation enrichment at minimum 0.5?
stdout: YES

stdin: Would you say ESMLRYDVYGG [STOX1_Y607_E608D] shows phosphorylation enrichment at minimum 0.5?
stdout: NO

stdin: Would you say LQRVQCDLQKA [DSP_Y1512_Y1512C] shows phosphorylation enrichment at minimum 0.5?
stdout: YES

stdin: Would you say KKGIVYIFNGR [ITGAV_Y404] shows phosphorylation enrichment at minimum 0.5?
stdout: NO

stdin: Would you say HSVLQYVGGVM [FGGY_Y136] shows phosphorylation enrichment at minimum 0.5?
stdout: YES

stdin: Would you say KLFFIYTPGTT [SLC27A4_Y245_S247P_YF] shows phosphorylation enrichment at minimum 0.5?
stdout: YES

stdin: Would you say ESPGLCGFLNV [BCR_Y910_Y910C] shows phosphorylation enrichment at minimum 0.5?
stdout: NO

stdin: Would you say HKGASYAFRLS [PTPRD_Y891_V892A] shows phosphorylation enrichment at minimum 0.5?
stdout: YES

stdin: Would you say AFLLLYFNDTH [BMP15_Y235] shows phosphorylation enrichment at minimum 0.5?
stdout: YES

stdin: Would you say TYEPNYGTVKQ [RAPGEF6_Y1447] shows phosphorylation enrichment at minimum 0.5?
stdout: YES

stdin: Would you say LYSGDCYRIQG [DDR2_Y740_Y740C] shows phosphorylation enrichment at minimum 0.5?
stdout: YES

----------
Measured phosphorylation enrichment values are reported for all entries that follow.
- Test system: Fer (mouse);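 also: 11-residue human phosphosite peptides and single-mutation variants displayed on the E. coli surface, counted by deep sequencing, each peptide's frequency after selection divided by its frequency in the unselected input library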;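 also: frequency after pTyr selection over input frequency; kinase dosed for 20-30% of maximal phosphorylation in three min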
- method: phosphorylation enrichment, bacterial display (enrichment ratio); higher = better substrate or ligand; peptides without Tyr show the background
Form rule: numeric answer, no unit written next to it.

> print(dat)
                    sequencestring  observedvalue
1    YFCRWYRNQKS [EREG_Y144_R147Q]          0.454
2   DEEPPDRGPFC [SASH1_Y551_Y551D]          0.665
3  KEAVLYPHLPP [SQSTM1_Y383_A381V]          0.363
4           KDQGTYEDYVE [MYL6_Y86]           0.56
5   DRLANYLEKVR [KRT40_Y103_S102N]          0.373
6     SFLFHYADDSF [RAB3C_Y50_R49H]          0.465
7    GISDEYHVIQH [GCDH_Y398_R402Q]          0.447
8        EYDRLYEEYTR [PIK3R1_Y467]           6.02

stdin: Provide the documented phosphorylation enrichment with Fer (mouse) as the system for INNIDYFKNTT [FGFR2_Y656_K659N_YF]
stdout: 0.317

stdin: Provide the documented phosphorylation enrichment with Fer (mouse) as the system for IHHIDYYKETT [FGFR1_Y653_K656E]
stdout: 0.396

stdin: Provide the documented phosphorylation enrichment with Fer (mouse) as the system for EKKKYYDTKIE [CASP5_Y104]
stdout: 0.381

stdin: Provide the documented phosphorylation enrichment with Fer (mouse) as the system for LGRGKYSEVFE [CSNK2A1_Y50]
stdout: 0.478

stdin: Provide the documented phosphorylation enrichment with Fer (mouse) as the system for NIQKKYFRAIL [CHD7_Y1217_YF]
stdout: 0.399

stdin: Provide the documented phosphorylation enrichment with Fer (mouse) as the system for AIIGIYILRDN [CDH23_Y2949_D2954N]
stdout: 0.596

stdin: Provide the documented phosphorylation enrichment with Fer (mouse) as the system for CFSSEYHFVGG [CTSC_Y345_Y340C_YF]
stdout: 0.753

stdin: Provide the documented phosphorylation enrichment with Fer (mouse) as the system for VSYDEYRYRSV [CFTR_Y515]
stdout: 0.381

stdin: Provide the documented phosphorylation enrichment with Fer (mouse) as the system for AGLVQYYMEHH [PTPN11_Y80_E76G]
stdout: 0.499

stdin: Provide the documented phosphorylation enrichment with Fer (mouse) as the system for LPSKDYAEVRR [HP_Y272_G276R]
stdout: 0.419

stdin: Provide the documented phosphorylation enrichment with Fer (mouse) as the system for LTSKPYAFTAQ [NDUFS1_Y236_R241Q]
stdout: 0.524

stdin: Provide the documented phosphorylation enrichment with Fer (mouse) as the system for QKPLDYFRVNL [GALE_Y104_YF]
stdout: 0.643

stdin: Provide the documented phosphorylation enrichment with Fer (mouse) as the system for RELGKYGLQAY [ALDH2_Y497_E496K]
stdout: 0.475

stdin: Provide the documented phosphorylation enrichment with Fer (mouse) as the system for HFIKLYEEKTG [PARP1_Y618_M615I]
stdout: 0.798

stdin: Provide the documented phosphorylation enrichment with Fer (mouse) as the system for SVVVPFEPPEV [TP53_Y220_Y220F]
stdout: 0.467

stdin: Provide the documented phosphorylation enrichment with Fer (mouse) as the system for AAVNGYVFGGG [ECHS1_Y137_A138V]
stdout: 0.414
